The measurements presented in this section are drawn from the supplement of paper PMC8728848.

target: GlcNAc(b1-4)GlcNAc(b1-4)GlcNAc(b1-4)GlcNAc(b1-4)GlcNAc; experiment: glycan array binding signal (z-score within array); higher = stronger binding; details: glycan notation: IUPAC condensed, linker removed
This is one part of a sample in which the strongest signals are shown more often than they occur.
TEST READOUT: glycan array binding signal (z-score)
Form rule: numeric answer, no unit written next to it.

These solved cases illustrate the format of a correct answer.
>  <BINDER>
WGA (Triticum vulgare) (protein) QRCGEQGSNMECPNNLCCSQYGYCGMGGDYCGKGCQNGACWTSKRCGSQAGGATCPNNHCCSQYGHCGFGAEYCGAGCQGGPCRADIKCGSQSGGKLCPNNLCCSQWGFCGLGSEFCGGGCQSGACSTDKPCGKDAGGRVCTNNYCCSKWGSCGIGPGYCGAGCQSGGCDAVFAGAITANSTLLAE

>  <glycan array binding signal (z-score)>
5.62

$$$$
>  <BINDER>
AAA (Anguilla anguilla), Q7SIC1 (protein) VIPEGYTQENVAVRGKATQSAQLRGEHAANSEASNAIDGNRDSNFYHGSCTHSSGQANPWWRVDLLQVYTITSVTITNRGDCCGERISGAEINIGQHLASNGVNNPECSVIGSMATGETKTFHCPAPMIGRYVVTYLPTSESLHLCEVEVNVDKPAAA

>  <glycan array binding signal (z-score)>
7.88

$$$$
>  <BINDER>
Gal 3 (Homo sapiens), P17931 (protein) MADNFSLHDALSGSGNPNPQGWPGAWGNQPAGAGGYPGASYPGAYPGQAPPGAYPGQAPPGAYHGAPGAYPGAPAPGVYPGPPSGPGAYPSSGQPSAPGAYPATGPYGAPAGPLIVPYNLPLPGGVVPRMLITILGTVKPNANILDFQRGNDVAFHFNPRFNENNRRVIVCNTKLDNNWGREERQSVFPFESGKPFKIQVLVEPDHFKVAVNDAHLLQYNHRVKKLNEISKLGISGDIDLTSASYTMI

>  <glycan array binding signal (z-score)>
-0.379

$$$$
>  <BINDER>
CrataBL (Crataeva tapia), C0HJA4 (protein) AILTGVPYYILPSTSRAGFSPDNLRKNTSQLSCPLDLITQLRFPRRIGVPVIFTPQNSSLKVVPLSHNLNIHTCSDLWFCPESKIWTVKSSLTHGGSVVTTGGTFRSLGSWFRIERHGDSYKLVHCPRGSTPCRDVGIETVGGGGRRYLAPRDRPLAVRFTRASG

>  <glycan array binding signal (z-score)>
-0.186

$$$$

Tell me the measured glycan array binding signal (z-score) of SP15308A-bot-339-19-339 (Bacteroides ovatus) (protein) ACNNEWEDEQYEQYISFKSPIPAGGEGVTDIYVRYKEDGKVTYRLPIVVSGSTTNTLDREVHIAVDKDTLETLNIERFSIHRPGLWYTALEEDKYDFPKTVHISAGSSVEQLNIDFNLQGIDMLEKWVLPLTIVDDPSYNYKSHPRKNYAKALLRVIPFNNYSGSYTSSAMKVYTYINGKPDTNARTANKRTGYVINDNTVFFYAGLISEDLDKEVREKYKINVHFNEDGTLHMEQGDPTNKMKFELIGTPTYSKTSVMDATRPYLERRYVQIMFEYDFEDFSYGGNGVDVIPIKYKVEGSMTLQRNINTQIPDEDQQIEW , please.
-0.452
